Each item that follows carries a reported melting point.
parameter: melting point

>>> readoutvalue("O=C1c2ccccc2[S+]([O-])C(c2ccccc2)N1c1ccccc1 (centres unmarked)")
"208 to 209 °C"
>>> readoutvalue("O=C1CC2(CC2)CS(=O)(=O)C(c2ccccc2)N1c1ccccc1 (centres unmarked)")
"186.6 to 187.7 °C (dec.)"
>>> readoutvalue("O=C1c2ccccc2S(=O)(=O)C(c2ccccc2)N1c1ccccc1 (centres unmarked)")
"163 to 165 °C"
>>> readoutvalue("O=C1c2cccnc2[S+]([O-])C(c2ccccc2)N1c1ccccc1 (centres unmarked)")
"177 to 179 °C"
>>> readoutvalue("O=C1CC2(CC2)C[S+]([O-])C(c2ccccc2)N1c1ccccc1 (centres unmarked)")
"193 to 194 °C"
>>> readoutvalue("O=C1CCS(=O)(=O)C(c2ccccc2)N1c1ccccc1 (centres unmarked)")
"145 to 148 °C"
>>> readoutvalue("CC(=O)N[C@H]1CS(=O)(=O)[C@@H](c2ccccc2)N(c2ccccc2)C1=O")
"170 to 194 °C (dec.)"
>>> readoutvalue("CC(=O)N[C@H]1C[S@+]([O-])[C@@H](c2ccccc2)N(c2ccccc2)C1=O")
"176 to 179 °C"
